Test system: Mus musculus
protocol: Ability to reverse electroconvulsive shock induced amnesia in mice, after administering intraperitoneally at a dose of 1.25 mg/kg
Type: functional
test parameters: route intraperitoneal
Please note: condition met applies when Amnesia reversal is 20% or greater, and condition not met applies otherwise.

Solved entries (count: 10):
NC(=O)CN1CC(c2ccccc2)CC1=O (stereo unspecified)
condition not met
Cn1c(=O)c2c(ncn2C)n(C)c1=O [CAFFEINE]
condition not met
C=C(C)[C@@H]1[C@H]2OC(=O)[C@@H]1[C@]1(O)C[C@H]3OC34C(=O)O[C@H]2[C@@]41C.CC(C)(O)[C@@H]1[C@H]2OC(=O)[C@@H]1[C@]1(O)C[C@H]3OC34C(=O)O[C@H]2[C@@]41C (stereo partly specified) [PICROTOXIN]
condition not met
CC(C)N(CCCNC(=O)CN1CC(c2ccccc2)CC1=O)C(C)C (stereo unspecified)
condition not met
CC(C)N(CCCNC(=O)CN1CCCC1=O)C(C)C
condition not met
CN1CCC[C@H]1c1cccnc1 [NICOTINE]
condition not met
N[C@@H]1C[C@H]1c1ccccc1.N[C@H]1C[C@@H]1c1ccccc1 [TRANYLCYPROMINE]
condition not met
C[C@H]1CCC[C@H](C)N1CCNC(=O)CN1CCCC1=O
condition met
O=C(CN1CCCC1=O)NCCN1CCCCC1
condition met
CC(C)N(CCNC(=O)CN1CCCC1=O)C(C)C [PRAMIRACETAM]
condition met

Entry COC(=O)C(c1ccccc1)C1CCCCN1 (stereo unspecified) [METHYLPHENIDATE] : is its Amnesia reversal no less than 20%?
condition not met

Entry CC1CCC(=O)N1CC(=O)NCCN1C(C)CCCC1C (stereo unspecified) : is its Amnesia reversal no less than 20%?
condition met

Entry CCN(CC)CCNC(=O)CN1CC(c2ccccc2)CC1=O (stereo unspecified) : is its Amnesia reversal no less than 20%?
condition not met

Entry CC1CCCC(C)N1CCCNC(=O)CN1CCCC1=O (stereo unspecified) : is its Amnesia reversal no less than 20%?
condition met

Entry CN(C)CCCN1c2ccccc2Sc2ccc(Cl)cc21 [CHLORPROMAZINE] : is its Amnesia reversal no less than 20%?
condition not met
